Dear all, I have gathered published pIC50 values for UDP-3-O-acyl-N-acetylglucosamine deacetylase (Escherichia coli K-12, UniProt P0A725); the list follows.
pIC50: −log10 of the molar value.

| compound | pIC50 |
| --- | --- |
| COc1ccc(C2=NOC(C(=O)NN)C2)cc1 (racemic) | < 3.37 |
| O=C(CO[C@H](CO)c1ccccc1)NO | < 3.70 |
| C[C@H](O)c1nccn1Cc1cc(-c2ccc(C#C[C@@H]3[C@H]4CN(CCCC(=O)O)C[C@@H]34)cc2)on1 | 7.00 |
| Cc1cnc(-c2ccc(C(=O)N[C@H](C(=O)NO)C(C)(C)NS(C)(=O)=O)cc2)nc1 | < 5.00 |
| C[Si](C)(C)C#Cc1ccc([C@@H](CO)OCC(=O)NO)cc1 | < 3.70 |
| COc1ccc(C2=NOC(C(=O)Nc3nccs3)C2)cc1 (racemic) | < 3.41 |
| COc1ccc(C2=NOC(S(N)(=O)=O)C2)cc1 (stereo unspecified) | < 2.92 |
| O=C(CO[C@@H](CO)c1ccccc1)NO | < 3.70 |
| O=C(CO[C@@H](CO)c1ccc(Br)cc1)NO | < 3.70 |
| Cc1ncc(-c2ccc(C(=O)N[C@H](C(=O)NO)C(C)(C)NS(C)(=O)=O)cc2)cn1 | < 5.00 |
| O=C(NO)[C@H]1O[C@@H](c2ccc(C#Cc3ccc(CN4CCOCC4)cc3)cc2)[C@@H](O)[C@H]1O | < 3.70 |
